# Measured target: cereblon (CRBN) (Homo sapiens)
# Sequence (Q96SW2 whole entry, species assumed): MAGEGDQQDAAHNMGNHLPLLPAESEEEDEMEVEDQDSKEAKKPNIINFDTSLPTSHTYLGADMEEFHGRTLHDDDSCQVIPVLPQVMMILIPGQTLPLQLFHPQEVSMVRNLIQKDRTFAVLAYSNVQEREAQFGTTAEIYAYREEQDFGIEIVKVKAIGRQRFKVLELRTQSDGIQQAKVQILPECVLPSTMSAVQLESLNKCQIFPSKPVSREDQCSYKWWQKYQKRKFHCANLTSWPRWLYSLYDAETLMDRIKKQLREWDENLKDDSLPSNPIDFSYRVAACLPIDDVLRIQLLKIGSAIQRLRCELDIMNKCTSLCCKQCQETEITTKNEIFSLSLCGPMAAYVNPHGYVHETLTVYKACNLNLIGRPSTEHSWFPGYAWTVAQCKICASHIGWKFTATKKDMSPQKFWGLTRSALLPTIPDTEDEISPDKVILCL
# Test summary: Kd and % inhibition from FI
# Assay type: binding
# Reported conditions: cell does not state FI or ITC; read-out: Kd (A) FI/ITC
pKd: −log10 of the molar value.
Readout type: pKd

(P) O=C1CCC(N2Cc3c(CCCCCCCCCCc4cccc5c4CN(C4CCC(=O)NC4=O)C5=O)cccc3C2=O)C(=O)N1 (stereo not drawn) [EC2-093]
(Q) O=C1CCC(NC(=O)c2cccc(NC(=O)CCCC(=O)Nc3cccc(C(=O)NC4CCC(=O)NC4=O)c3)c2)C(=O)N1 (stereo not drawn) [XS01-074]
(R) O=C1CCC(N2Cc3c(C#CCCCCCCC#Cc4cccc5c4CN(C4CCC(=O)NC4=O)C5=O)cccc3C2=O)C(=O)N1 (stereo not drawn) [EC2-086]
(S) Cc1sc2c(c1C)C(c1ccc(Cl)cc1)=N[C@H](CC(=O)NCCCCC(=O)N[C@H]1CC(=O)NC1=O)c1nnc(C)n1-2 [XS01-089]
Problem: Lab note: rank above entries, pKd ascending. Labels, requested order.
Result: S, Q, R, P
